- ASSAY TARGET: T1, human IL-1α (human, UniProt P01583 113-271)
- T1 sequence (looked up): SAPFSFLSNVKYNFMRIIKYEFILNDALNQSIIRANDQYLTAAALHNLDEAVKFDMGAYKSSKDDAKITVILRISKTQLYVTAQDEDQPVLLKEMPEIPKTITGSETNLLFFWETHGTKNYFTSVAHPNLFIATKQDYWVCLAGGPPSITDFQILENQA
- ASSAY NOTES: cell-based or functional assay
Rule for this label: class 1 means ND50 is less than 0.2 nM; class 0 means ND50 is at least 0.2 nM.

Here's what some known entries look like.
ABT1-95-177 (other) VL: DIQMTQSPSSLSASVGDRVTITCRASQPIVRNLRWYQQKPGKAPKLLIYASSYLEPGVPSRFSGSGSGTDFTLTISSLQPEDFATYHCRQGYRWPVTFGQGTKVEIKR : class 1
ABT1-141 (other, VK dAb) VL: DIQMTQSPSSLSASVGDRVTITCRASQWIQKQLAWYQQKPGKAPKLLIYSSSYLQSGVPSRFSGSGSGTDFTLTISSLQPEDFATYYCQQHLRVPFTFGQGTKVEIKR : class 0

Ask: Is ND50 strictly under 0.2 nM for the entry ABT1-141-76 (other, VK dAb) VL: DIQMTQSPSSLSASVGDRVTITCRANQWIQKQLAWYQQKPGKAPKLLIYSSSHLQSGVPSRFSGSGSGTDFTLTISSLQPEDFATYYCQQHLRVPMTFGQGTKVEIKR ?
Reply: class 0

Ask: Is ND50 strictly under 0.2 nM for the entry ABT1-95-121 (other, VK dAb) VL: DIQMTQSPSSLSASVGDRVTITCRASQPIVRNLRWYQQKPGKAPKLLIYSSSYLEPGVPSRFSGSGSGTDFTLTISSLQPEDFATYHCQQGYEWPVTFGQGTKVEIKR ?
Reply: class 1

Ask: Is ND50 strictly under 0.2 nM for the entry ABT1-18 (other) VL: DIQMTQSPSSLSASVGDRVTITCRASQSIQRWLAWYQQKPGKAPKLLIYFASQLQSGVPSRFSGSGSGTDFTLTISSLQPEDFATYYCQQLLRLPKTFGQGTKVEIKR ?
Reply: class 0

Ask: Is ND50 strictly under 0.2 nM for the entry ABT1-162 (other, VK dAb) VL: DIQMTQSPSSLSASVGGRVTITCRASHYIRNRLHWYQQKPGKAPKLLIARGSALQSGVPSRFSGSGSGTDFTLTISSLQPEDFATYYCVQDGYLPPTFGQGTKVEIKR ?
Reply: class 0

Ask: Is ND50 strictly under 0.2 nM for the entry ABT1-95-131 (other, VK dAb) VL: DIQMTQSPSSLSASVGDRVTITCRASQPTVRNLRWYQQKPGKAPKLLIYSSSYLEPGVPSRFSGSGSGTDFTLTISSLQPEDFATYHCQQGYRWPVTFGQGTKVEIKR ?
Reply: class 1

Ask: Is ND50 strictly under 0.2 nM for the entry ABT1-95-168 (other) VL: DIQMTQSPSSLSASVGDRVTITCRASQPIVRNLRWYQQKPGKAPKLLIYSSSFLEPGVPSRFSGSGSGTDFTLTISSLQPEDFATYHCQQGYRWPVTFGQGTKVEIKR ?
Reply: class 0

Ask: Is ND50 strictly under 0.2 nM for the entry ABT1-95-132 (other, VK dAb) VL: DIQMTQSPSSLSASVGDRVTITCRASQPIVRNLRWYQQKPGIAPKLLIYSSSYLEPGVPSRFSGSGSGTDFTLTISSPQPEDFATYHCQQGYRWPVTFGQGTKVEIKR ?
Reply: class 0
